Origin of values: patent US20250340623A1

Here, each record is paired with measured pKd data.
biological target: monomeric alpha-synuclein, P37840; test: SPR, captured mAb; details: remark: other sources report otherwise
Units for pKd: none; it is -log10 of a concentration expressed in mol/L.

State its pKd for this binder: ACI-7088-4303H6-Ab1 (antibody, V domains shown) VH: EVQLQQSGAELVRPGASVKLSCTASGFNIQDDYMHWVKQRPEQGLEWIGWIDPENGDTEYASKFQGKATLTADTSSNTAYLQLSRLTSEDTAVYYCTTAGSGVQLFDYWGQGTTLTVSA VL: DILMTQSQKFMSTSVGDRVSVTCKASQNVGTNVAWYQQKPGQSPKPLISSASSRYSGVPDRFTGSGSGTDFTLTISNVQSEDLADYFCQQYNRYPLTFGAGTKLELK
6.71

Tell me its pKd given ACI-8033-19A2-Ab1 (antibody, V domains shown) VH: EVQLVESGGGLVQPKGSLKLSCAASGFSFNTYAMNWVRQAPGKGLEWVARIRSKSNNYATYYVDSVKDRFTISRDDSESMLYLQMNNLKTEDTALYYCVSESAYWGQGTLVTVSA VL: DVVMTQTPLSLPVSLGDQASISCRSSQSLVHSNGNTYLYWYLQKPGQSPKLLIYKVSNRLSGVPDRFSGSGSGTDFTLKISRVEAEDLGVYFCSQSTHVPFTFGSGTKLEIK as the entry.
8.21
